molecular target: Endoplasmic reticulum aminopeptidase 1 (ERAP1) (UniProt Q9NZ08 1-941, limits assumed); experiment: cell-based or functional assay
Sequence (Q9NZ08 whole entry): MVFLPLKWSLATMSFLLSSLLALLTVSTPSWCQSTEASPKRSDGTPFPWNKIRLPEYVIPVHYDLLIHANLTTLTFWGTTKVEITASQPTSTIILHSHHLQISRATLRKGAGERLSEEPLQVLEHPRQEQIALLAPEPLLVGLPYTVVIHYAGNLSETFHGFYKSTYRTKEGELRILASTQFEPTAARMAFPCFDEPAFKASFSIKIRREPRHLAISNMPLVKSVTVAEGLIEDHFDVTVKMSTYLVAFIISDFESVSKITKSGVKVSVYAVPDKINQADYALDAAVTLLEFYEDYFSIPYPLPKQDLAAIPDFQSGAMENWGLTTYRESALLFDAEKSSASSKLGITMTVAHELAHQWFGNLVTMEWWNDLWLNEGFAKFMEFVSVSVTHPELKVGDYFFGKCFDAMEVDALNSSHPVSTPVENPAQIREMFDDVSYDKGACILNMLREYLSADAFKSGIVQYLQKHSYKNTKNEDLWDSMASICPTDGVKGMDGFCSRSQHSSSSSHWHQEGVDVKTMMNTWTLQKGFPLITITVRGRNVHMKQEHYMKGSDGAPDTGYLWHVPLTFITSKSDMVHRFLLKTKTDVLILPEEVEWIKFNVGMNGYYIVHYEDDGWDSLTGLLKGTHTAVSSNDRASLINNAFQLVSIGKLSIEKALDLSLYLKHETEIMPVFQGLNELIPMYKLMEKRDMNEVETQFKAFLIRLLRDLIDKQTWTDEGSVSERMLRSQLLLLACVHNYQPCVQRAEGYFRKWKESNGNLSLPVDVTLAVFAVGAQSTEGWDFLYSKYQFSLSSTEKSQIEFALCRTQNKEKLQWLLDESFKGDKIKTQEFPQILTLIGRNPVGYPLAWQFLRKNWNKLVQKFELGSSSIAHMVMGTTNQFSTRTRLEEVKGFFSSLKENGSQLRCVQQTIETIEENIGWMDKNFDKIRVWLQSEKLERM
Result Type: formation rate of … (SEQ ID NO: 19)(%)
Value expressed in %; do not type the unit.

Recorded formation rate of … (SEQ ID NO: 19)(%), per entry:
[
  {
    "Binder": "CGGLYDGMEHL [peptide CGGLYDGMEHL (SEQ ID NO: 164)]",
    "Units Label": "%",
    "Value": 0
  },
  {
    "Binder": "CFGLYDGMEHL [peptide CFGLYDGMEHL (SEQ ID NO: 168)]",
    "Units Label": "%",
    "Value": 0
  },
  {
    "Binder": "CHGLYDGMEHL [peptide CHGLYDGMEHL (SEQ ID NO: 165)]",
    "Units Label": "%",
    "Value": 0
  }
]

Shifting focus to the binder that follows.
### Prompt State the recorded formation rate of … (SEQ ID NO: 19)(%) for this entry: CKGLYDGMEHL [peptide CKGLYDGMEHL (SEQ ID NO: 167)]
### Response 0

This collection of values is drawn from patent US20200171136A1.
